From: the supplement of paper PMC10567573

Please provide measured protein stability index for the entries that follow.
B1: MFF (parent)
chain: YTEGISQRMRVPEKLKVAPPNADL

variants of: B1; assay: protein stability index of a GFP-peptide fusion (GPS, HEK-293T) (PSI 1-6); higher = more stable; conditions: c terminus: a fixed tail appended;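 note: lentivirally expressed fusions sorted by FACS into six bins by GFP to DsRed ratio, PSI derived from sequencing read proportions per bin multiplied by bin number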

The examples below pair each entry with its known result.
# residue-string, protein stability index
data = [
    ("YTEGISQRMRVPEKLKVAEPNADL [P19E]", 2.56),
    ("YTEGISQRMRVPEKLKVAPPNSDL [A22S]", 2.87),
]

Required: protein stability index, one value per variant below.
1. YTEGISQRMRVPEALKVAPPNADL [K14A]
2. YVEGISQRMRVPEKLKVAPPNADL [T2V]
3. YTEGISQRMRVPEKLKVAPPRADL [N21R]
4. YTEGISQRMRVPEKLKVAPPNAWL [D23W]
5. YTEGISQRMRVPRKLKVAPPNADL [E13R]
6. YTEGISQRMRVPEKLLVAPPNADL [K16L]

[A]
[3.06, 2.46, 3.19, 2.23, 2.9, 2.62]

Please look at the items below and tell me protein stability index for each one, in order.
1. YTEGIGQRMRVPEKLKVAPPNADL [S6G]
2. YTEGIYQRMRVPEKLKVAPPNADL [S6Y]
3. YTEGISQRMRVPEKLKVHPPNADL [A18H]
4. WTEGISQRMRVPEKLKVAPPNADL [Y1W]
5. YTEGSSQRMRVPEKLKVAPPNADL [I5S]

[A]
[2.86, 3.1, 3.88, 4.21, 4.16]

Give measured protein stability index for every item shown.
1. YTLGISQRMRVPEKLKVAPPNADL [E3L]
2. YTEGISQRMRVPEKLKVCPPNADL [A18C]

[A]
2.58
2.77
